B1: library; a variant is named by its letters at N, in order (parent)
chain: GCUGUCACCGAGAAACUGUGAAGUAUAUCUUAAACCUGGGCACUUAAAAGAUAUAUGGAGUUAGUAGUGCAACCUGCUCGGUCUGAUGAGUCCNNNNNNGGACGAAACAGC

- Variants of: B1
- METHOD: FACS-Seq fitted mean relative fluorescence mCherry/BFP without ligand (log10 relative fluorescence); HEK293T; ligand: cyclic di-GMP (c-di-GMP-II aptamer); higher = higher reporter protein expression
- CONDITION_INFO: ligand present: no

SEQUENCE_ENTRY | FACS-Seq fitted mean (log10)
GCUGUCACCGAGAAACUGUGAAGUAUAUCUUAAACCUGGGCACUUAAAAGAUAUAUGGAGUUAGUAGUGCAACCUGCUCGGUCUGAUGAGUCCAUUGGAGGACGAAACAGC | -0.489
GCUGUCACCGAGAAACUGUGAAGUAUAUCUUAAACCUGGGCACUUAAAAGAUAUAUGGAGUUAGUAGUGCAACCUGCUCGGUCUGAUGAGUCCACACGGGGACGAAACAGC | -0.501
GCUGUCACCGAGAAACUGUGAAGUAUAUCUUAAACCUGGGCACUUAAAAGAUAUAUGGAGUUAGUAGUGCAACCUGCUCGGUCUGAUGAGUCCGCGAAUGGACGAAACAGC | -0.502
